meta.source: BigSolDB 2.1

# Condition Description: in ethylene glycol, 303.15 K
Measured Metric: solubility (mole fraction)

INSERT INTO results (smiles, measured_metric, result_value) VALUES
  ('COc1cc(/C=C/C(=O)O)cc(OC)c1O', 'solubility (mole fraction)', 0.00663);

* * *

# Condition Description: in ethylene glycol, 313.15 K
Measured Metric: solubility (mole fraction)

INSERT INTO assay_data (smiles, measured_metric, result_value) VALUES
  ('COc1cc(/C=C/C(=O)O)cc(OC)c1O', 'solubility (mole fraction)', 0.00843);

* * *

# Condition Description: in ethanol, 318.15 K
Measured Metric: solubility (mole fraction)

INSERT INTO results (smiles, result_value) VALUES
  ('COc1cc(/C=C/C(=O)O)cc(OC)c1O', 0.0164);

* * *

# Condition Description: in n-butanol, 318.15 K
Measured Metric: solubility (mole fraction)

INSERT INTO results (smiles, measured_metric, result_value) VALUES
  ('COc1cc(/C=C/C(=O)O)cc(OC)c1O', 'solubility (mole fraction)', 0.00729);

* * *

# Condition Description: in isopropanol, 318.15 K
Measured Metric: solubility (mole fraction)

INSERT INTO assay_data (smiles, measured_metric, result_value) VALUES
  ('COc1cc(/C=C/C(=O)O)cc(OC)c1O', 'solubility (mole fraction)', 0.00257);

* * *

# Condition Description: in sec-butanol, 303.15 K
Measured Metric: solubility (mole fraction)

INSERT INTO measurements (smiles, measured_metric, result_value) VALUES
  ('COc1cc(/C=C/C(=O)O)cc(OC)c1O', 'solubility (mole fraction)', 0.00486);

* * *

# Condition Description: in transcutol, 313.15 K
Measured Metric: solubility (mole fraction)

INSERT INTO assay_data (smiles, result_value) VALUES
  ('COc1cc(/C=C/C(=O)O)cc(OC)c1O', 0.0383);

* * *

# Condition Description: in propylene glycol, 308.15 K
Measured Metric: solubility (mole fraction)

INSERT INTO results (smiles, result_value) VALUES
  ('COc1cc(/C=C/C(=O)O)cc(OC)c1O', 0.00607);

* * *

# Condition Description: in PEG-400, 308.15 K
Measured Metric: solubility (mole fraction)

INSERT INTO measurements (smiles, result_value) VALUES
  ('COc1cc(/C=C/C(=O)O)cc(OC)c1O', 0.0681);

* * *

# Condition Description: in DMSO, 298.15 K
Measured Metric: solubility (mole fraction)

INSERT INTO results (smiles, measured_metric, result_value) VALUES
  ('COc1cc(/C=C/C(=O)O)cc(OC)c1O', 'solubility (mole fraction)', 0.148);

* * *

# Condition Description: in sec-butanol, 308.15 K
Measured Metric: solubility (mole fraction)

INSERT INTO assay_data (smiles, measured_metric, result_value) VALUES
  ('COc1cc(/C=C/C(=O)O)cc(OC)c1O', 'solubility (mole fraction)', 0.00559);

* * *

# Condition Description: in sec-butanol, 298.15 K
Measured Metric: solubility (mole fraction)

INSERT INTO assay_data (smiles, measured_metric, result_value) VALUES
  ('COc1cc(/C=C/C(=O)O)cc(OC)c1O', 'solubility (mole fraction)', 0.00409);

* * *

# Condition Description: in transcutol, 308.15 K
Measured Metric: solubility (mole fraction)

INSERT INTO assay_data (smiles, result_value) VALUES
  ('COc1cc(/C=C/C(=O)O)cc(OC)c1O', 0.0353);
